- Tested on: Pseudomonas aeruginosa
- assay.explanation: Antibacterial activity against Pseudomonas aeruginosa PAO1 by agar dilution method
- Type: functional
The following molecules are shown together with reported MIC values.
Numbers only here, please. The scale is µg/mL.

Example entries and their recorded answers appear below.
[
  {
    "smiles.str": "CCCCCCCC(=O)N[C@@H](CCN(C)C)C(=O)N[C@H](C(=O)N[C@@H](CCN)C(=O)N[C@H]1CCNC(=O)[C@H]([C@@H](C)O)NC(=O)[C@H](CCN)NC(=O)[C@H](CCN)NC(=O)[C@H](CC(C)C)NC(=O)[C@@H](CC(C)C)NC(=O)[C@H](CCN)NC1=O)[C@@H](C)O",
    "MIC (µg/mL)": 8
  },
  {
    "smiles.str": "C[C@@H](O)[C@@H]1NC(=O)[C@H](CCN)NC(=O)[C@H](CCN)NC(=O)[C@H](Cc2ccccc2)NC(=O)[C@@H](Cc2ccc(-c3ccccc3)cc2)NC(=O)[C@H](CCN)NC(=O)[C@@H](NC(=O)[C@H](CCN)NC(=O)[C@@H](NC(=O)[C@H](CCN)NC(=O)c2ccc(-c3ccccc3)cc2)[C@@H](C)O)CCNC1=O",
    "MIC (µg/mL)": 16
  },
  {
    "smiles.str": "C[C@@H](O)[C@@H]1NC(=O)[C@H](CCN)NC(=O)[C@H](CCN)NC(=O)[C@H](Cc2ccccc2)NC(=O)[C@@H](Cc2ccccc2)NC(=O)[C@H](CCN)NC(=O)[C@@H](NC(=O)[C@H](CCN)NC(=O)[C@@H](NC(=O)[C@H](CCN)NC(=O)c2ccc(-c3ccccc3)cc2)[C@@H](C)O)CCNC1=O",
    "MIC (µg/mL)": 4
  }
]

Req: So what's the measured MIC for this one? `C[C@@H](O)[C@@H]1NC(=O)[C@H](CCN)NC(=O)[C@H](CCN)NC(=O)[C@H](Cc2ccccc2)NC(=O)[C@@H](Cc2ccc(-c3ccccc3)cc2)NC(=O)[C@H](CCN)NC(=O)[C@@H](NC(=O)[C@H](CCN)NC(=O)[C@@H](NC(=O)[C@H](CCN)NC(=O)c2cccc(-c3ccccc3)c2)[C@@H](C)O)CCNC1=O`
Resp: 16

Req: Also check `CCCCCCCC(=O)N[C@@H](CCN)C(=O)N[C@H](C(=O)N[C@@H](CCN(C)C)C(=O)N[C@H]1CCNC(=O)[C@H]([C@@H](C)O)NC(=O)[C@H](CCN)NC(=O)[C@H](CCN)NC(=O)[C@H](CC(C)C)NC(=O)[C@@H](CC(C)C)NC(=O)[C@H](CCN)NC1=O)[C@@H](C)O`
Resp: 4

Req: Also check `C[C@@H](O)[C@@H]1NC(=O)[C@H](CCN)NC(=O)[C@H](CCN)NC(=O)[C@H](Cc2ccccc2)NC(=O)[C@@H](Cc2ccc(-c3ccccc3)cc2)NC(=O)[C@H](CCN)NC(=O)[C@@H](NC(=O)[C@H](CCN)NC(=O)[C@@H](NC(=O)[C@H](CCN)NC(=O)c2ccccc2)[C@@H](C)O)CCNC1=O`
Resp: 4

Req: Also check `C[C@@H](O)[C@@H]1NC(=O)[C@H](CCN)NC(=O)[C@H](CCN)NC(=O)[C@H](Cc2ccccc2)NC(=O)[C@@H](Cc2ccccc2)NC(=O)[C@H](CCN)NC(=O)[C@@H](NC(=O)[C@H](CCN)NC(=O)[C@@H](NC(=O)[C@H](CCN)NC(=O)c2ccccc2)[C@@H](C)O)CCNC1=O`
Resp: 16
